conditions: Crystal; visual observation
± gives the expanded uncertainty stated by the source.
# Normal melting temperature per entry

COMPOUND	Normal melting temperature
C[n+]1ccn(CC#N)c1.N#Cc1nc(C(F)(F)F)[n-]c1C#N	93.0 ± 1.1 °C
CCCCCC[n+]1cccc2ccccc21.O=S(=O)([N-]S(=O)(=O)C(F)(F)F)C(F)(F)F [1-hexylquinolinium bis(trifluoromethylsulfonyl)amide]	45 ± 1.1 °C
CC[N+]1(C)CCCCC1.O=S(=O)([N-]S(=O)(=O)C(F)(F)F)C(F)(F)F	82.8 ± 1.1 °C
CCCCCC[n+]1ccc2ccccc2c1.O=S(=O)([N-]S(=O)(=O)C(F)(F)F)C(F)(F)F [N-hexylisoquinolinium bis(trifluoromethylsulfonyl)imide]	55.2 ± 1.1 °C
